target: SARS-CoV-2 receptor-binding domain (amino acids 330-532), prototypical Wuhan/Victoria (SARS-CoV-2 (Wuhan/Victoria), UniProt P0DTC2 330-532); experiment: SPR
property-measured: fold increase in affinity on combining the VHHs

binder: C1-SUMO-H3-Fc (Fc fusion, also called C1-GSGSGS-SUMO-GSGSGS-H3) QVQLVESGGGLVQPGGSLRLSCAASGFTNDFYSIAWFRQAPGKEREGVSWLSVSDNTPTYVDSVKDRFTISRHNANNTVYLQMNMLKPEDTAIYYCAAGRFAGRDTWPSSYDYWGQGTQVTVSSGSGSGSDSEVNQEAKPEVKPEVKPETHINLKVSDGSSEIFFKIKKTTPLRRLMEAFAKRQGKEMDSLRFLYDGIRIQADQTPEDLDMEDNDIIEAHREQIGSGSGSQVQLVESGGGLVKTGGSLRLSCAASGRTFSTYSMGWFRQAPGKEREFVAGMRWTGSSTFYSDSVKGRFTVSRNNAKDTVYLHMNSLKPEDTAVYYCAITTIVRAYYTEYTEADFGSWGQGTQVTVS
readout-value: ~40 fold
//
binder: C1-SUMO-H11-H4-Fc (Fc fusion, also called C1-GSGSGS-SUMO-GSGSGS-H11-H4) QVQLVESGGGLVQPGGSLRLSCAASGFTNDFYSIAWFRQAPGKEREGVSWLSVSDNTPTYVDSVKDRFTISRHNANNTVYLQMNMLKPEDTAIYYCAAGRFAGRDTWPSSYDYWGQGTQVTVSSGSGSGSDSEVNQEAKPEVKPEVKPETHINLKVSDGSSEIFFKIKKTTPLRRLMEAFAKRQGKEMDSLRFLYDGIRIQADQTPEDLDMEDNDIIEAHREQIGSGSGSQVQLVESGGGLMQAGGSLRLSCAVSGRTFSTAAMGWFRQAPGKEREFVAAIRWSGGSAYYADSVKGRFTISRDKAKNTVYLQMNSLKYEDTAVYYCAQTHYVSYLLSDYATWPYDYWGQGTQVTVSS
readout-value: ~40 fold
//
binder: C1-SUMO-C5-Fc (Fc fusion, also called C1-GSGSGS-SUMO-GSGSGS-C5) QVQLVESGGGLVQPGGSLRLSCAASGFTNDFYSIAWFRQAPGKEREGVSWLSVSDNTPTYVDSVKDRFTISRHNANNTVYLQMNMLKPEDTAIYYCAAGRFAGRDTWPSSYDYWGQGTQVTVSSGSGSGSDSEVNQEAKPEVKPEVKPETHINLKVSDGSSEIFFKIKKTTPLRRLMEAFAKRQGKEMDSLRFLYDGIRIQADQTPEDLDMEDNDIIEAHREQIGSGSGSQVQLVESGGGSVQAGGSLTLSCVASGVTLGRHAIGWFRQAPGKERERVSCIRTFDGITSYVESTKGRFTISSNNAMNTVYLQMNSLKPEDTAVYFCALGVTAACSDNPYFWGQGTQVTVSS
readout-value: ~240 fold
//
binder: F2-SUMO-C5-Fc (Fc fusion, also called F2-GSGSGS-SUMO-GSGSGS-C5) QVQLVESGGGLVQAGGSLRLACIASGRTFHSYVMAWFRQAPGKEREFVAAISWSSTPTYYGESVKGRFTISRDNAKNTVYLQMNRLKPEDTAVYFCAADRGESYYYTRPTEYEFWGQGTQVTVSSGSGSGSDSEVNQEAKPEVKPEVKPETHINLKVSDGSSEIFFKIKKTTPLRRLMEAFAKRQGKEMDSLRFLYDGIRIQADQTPEDLDMEDNDIIEAHREQIGSGSGSQVQLVESGGGSVQAGGSLTLSCVASGVTLGRHAIGWFRQAPGKERERVSCIRTFDGITSYVESTKGRFTISSNNAMNTVYLQMNSLKPEDTAVYFCALGVTAACSDNPYFWGQGTQVTVSS
readout-value: ~85 fold
